# Tested on: U2932 TK216-resistant clone 3
# assay-method-text: cell proliferation relative to vehicle (% of vehicle); higher = less growth inhibition
# condition-set: 50 nM; 72 h
Counter-ions that a name gives are not always drawn.

>  <molecule>
CCCS(=O)(=O)Nc1ccc(F)c(C(=O)c2c[nH]c3ncc(Cl)cc23)c1F

>  <cell proliferation>
106

$$$$
>  <molecule>
Cc1cn([C@H]2O[C@@H](CO)[C@H](O)[C@H]2F)c(=O)[nH]c1=O [Clevudine]

>  <cell proliferation>
96.2

$$$$
>  <molecule>
CN1CCN(Cc2ccc(-c3cnc4[nH]cc(-c5ccc6[nH]ccc6c5)c4c3)cc2)CC1

>  <cell proliferation>
97.2

$$$$
>  <molecule>
CNc1nc(Nc2cn(C(C)(C)C#N)nc2C)ncc1C(F)(F)F

>  <cell proliferation>
101

$$$$
>  <molecule>
CS(=O)(=O)c1cccc(CNc2nc(Nc3ccc4c(c3)CCC(=O)N4)ncc2C(F)(F)F)c1

>  <cell proliferation>
103

$$$$
>  <molecule>
C[C@@H](N)[C@H]1CC[C@H](C(=O)Nc2ccncc2)CC1

>  <cell proliferation>
100

$$$$
>  <molecule>
CO[C@@H](C)Cn1c(=O)n(C)c2cnc3ccc(-c4cncc(C(C)(C)O)c4)cc3c21

>  <cell proliferation>
79.2

$$$$
>  <molecule>
O=c1oc2c(O)c(O)cc3c(=O)oc4c(O)c(O)cc1c4c23 [Ellagic acid]

>  <cell proliferation>
106

$$$$
>  <molecule>
COc1cc(Nc2ncc(F)c(Nc3ccc4c(n3)NC(=O)C(C)(C)O4)n2)cc(OC)c1OC

>  <cell proliferation>
103

$$$$
>  <molecule>
CN(CCOc1ccc(CC2SC(=O)NC2=O)cc1)c1ccccn1 (stereo not drawn) [Rosiglitazone]

>  <cell proliferation>
98.8

$$$$
>  <molecule>
Cc1ccc(Nc2nccc(N(C)c3ccc4c(C)n(C)nc4c3)n2)cc1S(N)(=O)=O [Pazopanib HCl]

>  <cell proliferation>
101

$$$$
>  <molecule>
CCCCCCCCCCCCc1ccc(S(=O)(=O)Nc2nncs2)cc1

>  <cell proliferation>
102

$$$$
>  <molecule>
COc1cc([C@@H]2c3cc4c(cc3[C@@H](O[C@@H]3O[C@@H]5CO[C@@H](c6cccs6)O[C@H]5[C@H](O)[C@H]3O)[C@H]3COC(=O)[C@H]23)OCO4)cc(OC)c1O [Teniposide]

>  <cell proliferation>
83

$$$$
>  <molecule>
Cc1cc(Nc2cc(N3CCN(C)CC3)nc(/C=C/c3ccccc3)n2)n[nH]1

>  <cell proliferation>
97.6

$$$$
>  <molecule>
Nc1cccc2c1CN(C1CCC(=O)NC1=O)C2=O (stereo not drawn) [Lenalidomide (CC-5013)]

>  <cell proliferation>
102

$$$$
>  <molecule>
O=c1[nH]c(=O)n([C@H]2C[C@H](O)[C@@H](CO)O2)cc1F [Floxuridine]

>  <cell proliferation>
95.2

$$$$
>  <molecule>
Cc1nc(-c2ccc(OCC(C)C)c(C#N)c2)sc1C(=O)O [Febuxostat]

>  <cell proliferation>
106

$$$$
>  <molecule>
CCCCc1nc2cc(/C=C/C(=O)NO)ccc2n1CCN(CC)CC [Pracinostat (SB939)]

>  <cell proliferation>
89.2

$$$$

---

# System: U2932 TK216-resistant clone 3
# assay-method-text: cell proliferation relative to vehicle (% of vehicle); higher = less growth inhibition
# condition-set: 500 nM; 72 h
Counter-ions that a name gives are not always drawn.
Please note: y applies when cell proliferation is 70 or greater, and n applies otherwise.

>  <compound>
Cn1cc(-c2ccc3c(c2)CCN3C(=O)Cc2cccc(C(F)(F)F)c2)c2c(N)ncnc21

>  <system-name>
U2932 TK216-resistant clone 3

>  <assigned-label>
y

$$$$
>  <compound>
C#Cc1cccc(Nc2ncnc3cc(OC)c(OCCCCCCC(=O)NO)cc23)c1

>  <system-name>
U2932 TK216-resistant clone 3

>  <assigned-label>
n

$$$$
>  <compound>
C=CCc1ccc(O)c(-c2ccc(O)c(CC=C)c2)c1

>  <system-name>
U2932 TK216-resistant clone 3

>  <assigned-label>
y

$$$$
>  <compound>
Nc1nc(F)nc2c1ncn2[C@@H]1O[C@H](CO)[C@@H](O)[C@@H]1O

>  <system-name>
U2932 TK216-resistant clone 3

>  <assigned-label>
y

$$$$
>  <compound>
c1ccc(Cn2c(-c3ccc(OC[C@H](C4CCNCC4)n4c(-c5ccccc5)nc5ccccc54)cc3)nc3ccccc32)cc1

>  <system-name>
U2932 TK216-resistant clone 3

>  <assigned-label>
y

$$$$
>  <compound>
CO[C@H]1C[C@@H]2CC[C@@H](C)[C@@](O)(O2)C(=O)C(=O)N2CCCC[C@H]2C(=O)O[C@H]([C@H](C)C[C@@H]2CC[C@@H](OP(C)(C)=O)[C@H](OC)C2)CC(=O)[C@H](C)/C=C(\C)[C@@H](O)[C@@H](OC)C(=O)[C@H](C)C[C@H](C)/C=C/C=C/C=C/1C

>  <system-name>
U2932 TK216-resistant clone 3

>  <assigned-label>
n

$$$$
>  <compound>
CO[C@H]1C[C@@H]2CC[C@@H](C)[C@@](O)(O2)C(=O)C(=O)N2CCCC[C@H]2C(=O)O[C@H]([C@H](C)C[C@@H]2CC[C@@H](O)[C@H](OC)C2)CC(=O)[C@H](C)/C=C(\C)[C@@H](O)[C@@H](OC)C(=O)[C@H](C)C[C@H](C)/C=C/C=C/C=C/1C [Rapamycin (Sirolimus)]

>  <system-name>
U2932 TK216-resistant clone 3

>  <assigned-label>
n

$$$$
>  <compound>
Cc1cn([C@H]2O[C@@H](CO)[C@H](O)[C@H]2F)c(=O)[nH]c1=O

>  <system-name>
U2932 TK216-resistant clone 3

>  <assigned-label>
y

$$$$
>  <compound>
CC1(C)CCC(CN2CCN(c3ccc(C(=O)NS(=O)(=O)c4ccc(NCC5CCOCC5)c([N+](=O)[O-])c4)c(Oc4cnc5[nH]ccc5c4)c3)CC2)=C(c2ccc(Cl)cc2)C1

>  <system-name>
U2932 TK216-resistant clone 3

>  <assigned-label>
n

$$$$
>  <compound>
NC(=O)c1ncn([C@@H]2O[C@H](CO)[C@@H](O)[C@H]2O)c1N

>  <system-name>
U2932 TK216-resistant clone 3

>  <assigned-label>
y

$$$$
>  <compound>
O=C(Nc1cccc(Nc2ncc(Br)c(NCCc3cnc[nH]3)n2)c1)N1CCCC1

>  <system-name>
U2932 TK216-resistant clone 3

>  <assigned-label>
y

$$$$
>  <compound>
CC(C)C[C@H](NC(=O)[C@H](CCc1ccccc1)NC(=O)CN1CCOCC1)C(=O)N[C@@H](Cc1ccccc1)C(=O)N[C@@H](CC(C)C)C(=O)[C@@]1(C)CO1

>  <system-name>
U2932 TK216-resistant clone 3

>  <assigned-label>
n

$$$$
>  <compound>
Nc1cc(C(F)(F)F)c(-c2cc(N3CCOCC3)nc(N3CCOCC3)n2)cn1

>  <system-name>
U2932 TK216-resistant clone 3

>  <assigned-label>
y

$$$$
>  <compound>
CN(CCOc1ccc(CC2SC(=O)NC2=O)cc1)c1ccccn1 (configuration not stated)

>  <system-name>
U2932 TK216-resistant clone 3

>  <assigned-label>
y

$$$$
>  <compound>
Nc1ccc(C(=O)Nc2cccc(-c3nc(N4CCOCC4)c4oc5ncccc5c4n3)c2)cn1

>  <system-name>
U2932 TK216-resistant clone 3

>  <assigned-label>
y

$$$$
>  <compound>
NC1(c2ccc(-c3nc4ccn5c(=O)[nH]nc5c4cc3-c3ccccc3)cc2)CCC1

>  <system-name>
U2932 TK216-resistant clone 3

>  <assigned-label>
y

$$$$
>  <compound>
CNC(=O)c1cccc(-c2ccc3c(N4CCOC[C@@H]4C)nc(N4CCOC[C@@H]4C)nc3n2)c1

>  <system-name>
U2932 TK216-resistant clone 3

>  <assigned-label>
n

$$$$
>  <compound>
CCCCNc1ncc2c(-c3ccc(CN4CCN(C)CC4)cc3)cn([C@H]3CC[C@H](O)CC3)c2n1

>  <system-name>
U2932 TK216-resistant clone 3

>  <assigned-label>
n

$$$$
>  <compound>
CCCC(CCC)C(=O)O [Valproic acid sodium salt (Sodium valproate)]

>  <system-name>
U2932 TK216-resistant clone 3

>  <assigned-label>
y

$$$$
>  <compound>
Cc1cc(Nc2cc(N3CCN(C)CC3)nc(/C=C/c3ccccc3)n2)n[nH]1 [ENMD-2076 L-(+)-Tartaric acid]

>  <system-name>
U2932 TK216-resistant clone 3

>  <assigned-label>
n

$$$$
>  <compound>
CN(C)c1nc(N(C)C)nc(N(C)C)n1

>  <system-name>
U2932 TK216-resistant clone 3

>  <assigned-label>
y

$$$$
>  <compound>
CCN(CC)CCNC(=O)c1c(C)[nH]c(/C=C2\C(=O)Nc3ccc(F)cc32)c1C [Sunitinib Malate]

>  <system-name>
U2932 TK216-resistant clone 3

>  <assigned-label>
y

$$$$
>  <compound>
CCOc1cc(C(=O)N2CCC(N3CCN(C)CC3)CC2)ccc1Nc1ncc2c(n1)N(C1CCCC1)c1ccccc1C(=O)N2C

>  <system-name>
U2932 TK216-resistant clone 3

>  <assigned-label>
n

$$$$
>  <compound>
C[C@@H](Oc1cc(-n2cnc3ccc(CN4CCN(C)CC4)cc32)sc1C(N)=O)c1ccccc1C(F)(F)F

>  <system-name>
U2932 TK216-resistant clone 3

>  <assigned-label>
n

$$$$
>  <compound>
CO[C@H]1C[C@@H]2CC[C@@H](C)[C@@](O)(O2)C(=O)C(=O)N2CCCC[C@H]2C(=O)O[C@H]([C@H](C)C[C@@H]2CC[C@@H](OCCO)[C@H](OC)C2)CC(=O)[C@H](C)/C=C(\C)[C@@H](O)[C@@H](OC)C(=O)[C@H](C)C[C@H](C)/C=C/C=C/C=C/1C [Everolimus (RAD001)]

>  <system-name>
U2932 TK216-resistant clone 3

>  <assigned-label>
n

$$$$
>  <compound>
Cn1c(Nc2ccc(C(F)(F)F)cc2)nc2cc(Oc3ccnc(-c4ncc(C(F)(F)F)[nH]4)c3)ccc21

>  <system-name>
U2932 TK216-resistant clone 3

>  <assigned-label>
y

$$$$
